# assayed.system: LYP/PTPN22 (Homo sapiens)
# Construct: catalytic domains of LYP (aa 2-309) and PTP-PEST (aa 2-323, PEST); 6xHis (N, cleaved yes); made in house; host or cells: E. coli BL21
# measurement.description: biochemical
# assay.context: LYP IC50
measure.name: pIC50
The read-out pIC50 is expressed as -log10 of concentration in moles per litre.

Prompt: So what's the measured pIC50 for this one? Cc1ccc2[nH]c(=O)c([C@H](c3nnnn3C3CCCC3)N3CCC(C)CC3)cc2c1 [compound 32]
Completion: 4.69

Prompt: Continue with Cc1ccc2cc(C(c3nnnn3C3CCCC3)N(Cc3ccccc3)Cc3ccc(C(C)C)cc3)c(=O)[nH]c2c1 (stereo not shown) [compound 4]
Completion: 5.12

Prompt: Continue with Cc1cccc2cc(C(c3nnnn3C3CCCC3)N3CCCC4(CCCCC4)C3)c(=O)[nH]c12 (stereo not shown) [compound 22]
Completion: 4.80

Prompt: Continue with Cc1ccc2cc(C(c3nnnn3C3CCCC3)N3CCN(C(c4ccccc4)c4ccccc4)CC3)c(=O)[nH]c2c1C (stereo not shown) [compound 6]
Completion: 5.04

----------
Would you mind telling me the reported pIC50 of each entry?
# assayed.system: PTP-PEST (Homo sapiens, UniProt Q05209)
# Sequence (Q05209 2-323): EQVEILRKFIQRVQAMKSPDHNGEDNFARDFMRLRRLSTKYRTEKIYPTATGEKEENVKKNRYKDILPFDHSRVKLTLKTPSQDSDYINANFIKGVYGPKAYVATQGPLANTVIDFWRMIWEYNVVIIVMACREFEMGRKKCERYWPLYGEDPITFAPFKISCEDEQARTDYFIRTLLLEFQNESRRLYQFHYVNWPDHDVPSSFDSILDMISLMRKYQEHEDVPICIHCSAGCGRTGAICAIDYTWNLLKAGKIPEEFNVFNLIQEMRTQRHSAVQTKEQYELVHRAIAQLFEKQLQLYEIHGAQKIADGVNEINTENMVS
# measurement.description: Counter-screen phosphatase assay PTP-PEST
# Format: biochemical
# assay.context: read-out: PEST IC50
The read-out pIC50 is expressed as -log10 of concentration in moles per litre.

Prompt: So what's the measured pIC50 for this one? Cc1cc(C)c2[nH]c(=O)c([C@H](c3nnnn3C3CCCC3)N3CCC[C@@H](C)C3)cc2c1 [compound 49]
Completion: 4.34

Prompt: Continue with COc1ccc2cc(C(c3nnnn3C3CCCC3)N3CCCC4(CCCCC4)C3)c(=O)[nH]c2c1 (stereo not shown) [compound 26]
Completion: 4.50

Prompt: Continue with Cc1cc(C)c2[nH]c(=O)c([C@@H](c3nnnn3Cc3ccccc3)N3CCCC4(CCCCC4)C3)cc2c1 [compound 14]
Completion: 4.82

Prompt: Continue with Cc1cccc2cc(C(c3nnnn3C3CCCC3)N3CCCC4(CCCCC4)C3)c(=O)[nH]c12 (stereo not shown) [compound 22]
Completion: 4.67

----------
Would you mind telling me the reported pIC50 of each entry?
# assayed.system: LYP/PTPN22 (Homo sapiens, UniProt Q9Y2R2)
# Construct: catalytic domains of LYP (aa 2-309) and PTP-PEST (aa 2-323, PEST); 6xHis (N, cleaved yes); made in house; host or cells: E. coli BL21
# Sequence (Q9Y2R2 2-309): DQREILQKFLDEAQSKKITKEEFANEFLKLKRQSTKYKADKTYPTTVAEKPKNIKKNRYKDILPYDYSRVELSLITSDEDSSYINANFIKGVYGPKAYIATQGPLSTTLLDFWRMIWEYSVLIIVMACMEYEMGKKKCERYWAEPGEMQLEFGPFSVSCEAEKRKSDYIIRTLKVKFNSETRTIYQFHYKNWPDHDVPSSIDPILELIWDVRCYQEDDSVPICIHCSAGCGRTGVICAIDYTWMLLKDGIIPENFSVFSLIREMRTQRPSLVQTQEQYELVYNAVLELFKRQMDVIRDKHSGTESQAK
# measurement.description: biochemical
# assay.context: LYP IC50
The read-out pIC50 is expressed as -log10 of concentration in moles per litre.

Prompt: So what's the measured pIC50 for this one? COc1ccc2cc(C(c3nnnn3C3CCCC3)N3CCCC4(CCCCC4)C3)c(=O)[nH]c2c1 (stereo not shown)
Completion: 4.74

Prompt: Continue with Cc1ccc2[nH]c(=O)c([C@H](c3nnnn3C3CCCC3)N3CCN(c4ccccc4)CC3)cc2c1
Completion: 4.44

Prompt: Continue with Cc1cccc2cc(C(c3nnnn3C3CCCC3)N3CCN(C(c4ccccc4)c4ccccc4)CC3)c(=O)[nH]c12 (stereo not shown)
Completion: 4.88

Prompt: Continue with Cc1ccc2cc(C(c3nnnn3C3CCCC3)N3CCCC4(CCCCC4)C3)c(=O)[nH]c2c1 (stereo not shown)
Completion: 4.82

----------
# assayed.system: LYP/PTPN22 (Homo sapiens)
# Construct: catalytic domains of LYP (aa 2-309) and PTP-PEST (aa 2-323, PEST); 6xHis (N, cleaved yes); made in house; host or cells: E. coli BL21
# Sequence (Q9Y2R2 2-309): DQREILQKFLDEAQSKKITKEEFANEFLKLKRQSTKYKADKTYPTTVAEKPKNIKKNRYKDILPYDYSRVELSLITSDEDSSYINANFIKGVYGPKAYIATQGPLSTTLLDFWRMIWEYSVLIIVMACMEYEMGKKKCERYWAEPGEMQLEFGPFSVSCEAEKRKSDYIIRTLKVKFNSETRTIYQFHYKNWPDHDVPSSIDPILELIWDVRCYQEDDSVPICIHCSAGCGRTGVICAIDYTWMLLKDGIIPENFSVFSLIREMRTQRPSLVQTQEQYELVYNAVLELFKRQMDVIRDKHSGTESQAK
# measurement.description: biochemical
# assay.context: LYP IC50, Table IV, analogues of E3P13
measure.name: IC50

Prompt: So what's the measured IC50 for this one? Cc1ccc2cc([C@@H](c3nnnn3C3CCCC3)N3CCCCC3)c(=O)[nH]c2c1 [compound 68]
Completion: > 40 µM

Prompt: Continue with Cc1cccc2cc([C@H](c3nnnn3C3CCCCC3)N3CCN(Cc4ccccc4)CC3)c(=O)[nH]c12 [compound 69]
Completion: > 40 µM

Prompt: Continue with Cc1cccc2cc([C@@H](c3nnnn3C3CCCC3)N3CCCCC3)c(=O)[nH]c12 [compound 76]
Completion: > 40 µM

Prompt: Continue with Cc1ccc2[nH]c(=O)c([C@H](c3nnnn3C3CCCC3)N3CCN(c4nc5ccccc5[nH]4)CC3)cc2c1 [compound 38]
Completion: 30.1 µM

Prompt: Continue with Cc1cc(C)c2[nH]c(=O)c([C@H](c3nnnn3C3CCCC3)N3CCC[C@@H](C)C3)cc2c1 [compound 49]
Completion: 39.5 µM

Prompt: Continue with Cc1cc(C)c2[nH]c(=O)c([C@H](c3nnnn3C3CCCC3)N3CCC(C)CC3)cc2c1 [compound 62]
Completion: > 40 µM

Prompt: Continue with Cc1ccc2[nH]c(=O)c([C@@H](c3nnnn3C3CCCC3)N3CCCCCC3)cc2c1 [compound 54]
Completion: > 40 µM

Prompt: Continue with COc1ccc2cc([C@H](c3nnnn3C3CCCC3)N3CCN(c4ccccc4)CC3)c(=O)[nH]c2c1 [compound 66]
Completion: > 40 µM

----------
# assayed.system: LYP/PTPN22 (Homo sapiens)
# Construct: catalytic domains of LYP (aa 2-309) and PTP-PEST (aa 2-323, PEST); 6xHis (N, cleaved yes); made in house; host or cells: E. coli BL21
# Sequence (Q9Y2R2 2-309): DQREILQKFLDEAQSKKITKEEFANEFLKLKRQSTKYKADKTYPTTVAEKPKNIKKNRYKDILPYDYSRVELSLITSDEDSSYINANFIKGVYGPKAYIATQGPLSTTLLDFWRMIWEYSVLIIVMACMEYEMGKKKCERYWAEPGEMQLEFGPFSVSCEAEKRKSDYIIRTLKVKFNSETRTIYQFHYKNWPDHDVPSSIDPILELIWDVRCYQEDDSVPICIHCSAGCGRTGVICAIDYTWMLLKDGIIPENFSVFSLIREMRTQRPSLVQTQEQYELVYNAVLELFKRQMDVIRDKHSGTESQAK
# measurement.description: biochemical
# assay.context: LYP IC50, Table IV, analogues of E3P13
pIC50: −log10 of the molar value.
measure.name: pIC50

Prompt: So what's the measured pIC50 for this one? Cc1ccc2cc([C@H](c3nnnn3C3CCCC3)N3CCC[C@@H](C)C3)c(=O)[nH]c2c1
Completion: 4.50

Prompt: Continue with Cc1cccc2cc([C@H](c3nnnn3CC3CCCC3)N3CCCC4(CCCCC4)C3)c(=O)[nH]c12
Completion: < 4.40

Prompt: Continue with Cc1ccc2[nH]c(=O)c([C@H](c3nnnn3C3CCCC3)N(C)C3CCCCC3)cc2c1
Completion: < 4.40

Prompt: Continue with Cc1cccc2cc([C@H](c3nnnn3C3CCCC3)N3CCN(C)CC3)c(=O)[nH]c12
Completion: < 4.40

Prompt: Continue with Cc1ccc2[nH]c(=O)c([C@@H](c3nnnn3C3CCCC3)N3CCc4ccccc4C3)cc2c1
Completion: 4.52

Prompt: Continue with Cc1cc(C)c2cc([C@H](c3nnnn3C3CCCC3)N3CCCCC3)c(=O)[nH]c2c1
Completion: < 4.40

Prompt: Continue with Cc1ccc2cc([C@H](c3nnnn3C3CCCC3)N3CCC[C@@H](C)C3)c(=O)[nH]c2c1C
Completion: < 4.40

Prompt: Continue with COc1ccc2cc([C@@H](c3nnnn3C3CCCC3)N3CCC(C)CC3)c(=O)[nH]c2c1
Completion: < 4.40

The measured values listed here are drawn from patent US20100210836A1.
